# target entity: Mitogen-activated protein kinase kinase kinase 5 (Homo sapiens)
# Sequence (Q99683 whole entry): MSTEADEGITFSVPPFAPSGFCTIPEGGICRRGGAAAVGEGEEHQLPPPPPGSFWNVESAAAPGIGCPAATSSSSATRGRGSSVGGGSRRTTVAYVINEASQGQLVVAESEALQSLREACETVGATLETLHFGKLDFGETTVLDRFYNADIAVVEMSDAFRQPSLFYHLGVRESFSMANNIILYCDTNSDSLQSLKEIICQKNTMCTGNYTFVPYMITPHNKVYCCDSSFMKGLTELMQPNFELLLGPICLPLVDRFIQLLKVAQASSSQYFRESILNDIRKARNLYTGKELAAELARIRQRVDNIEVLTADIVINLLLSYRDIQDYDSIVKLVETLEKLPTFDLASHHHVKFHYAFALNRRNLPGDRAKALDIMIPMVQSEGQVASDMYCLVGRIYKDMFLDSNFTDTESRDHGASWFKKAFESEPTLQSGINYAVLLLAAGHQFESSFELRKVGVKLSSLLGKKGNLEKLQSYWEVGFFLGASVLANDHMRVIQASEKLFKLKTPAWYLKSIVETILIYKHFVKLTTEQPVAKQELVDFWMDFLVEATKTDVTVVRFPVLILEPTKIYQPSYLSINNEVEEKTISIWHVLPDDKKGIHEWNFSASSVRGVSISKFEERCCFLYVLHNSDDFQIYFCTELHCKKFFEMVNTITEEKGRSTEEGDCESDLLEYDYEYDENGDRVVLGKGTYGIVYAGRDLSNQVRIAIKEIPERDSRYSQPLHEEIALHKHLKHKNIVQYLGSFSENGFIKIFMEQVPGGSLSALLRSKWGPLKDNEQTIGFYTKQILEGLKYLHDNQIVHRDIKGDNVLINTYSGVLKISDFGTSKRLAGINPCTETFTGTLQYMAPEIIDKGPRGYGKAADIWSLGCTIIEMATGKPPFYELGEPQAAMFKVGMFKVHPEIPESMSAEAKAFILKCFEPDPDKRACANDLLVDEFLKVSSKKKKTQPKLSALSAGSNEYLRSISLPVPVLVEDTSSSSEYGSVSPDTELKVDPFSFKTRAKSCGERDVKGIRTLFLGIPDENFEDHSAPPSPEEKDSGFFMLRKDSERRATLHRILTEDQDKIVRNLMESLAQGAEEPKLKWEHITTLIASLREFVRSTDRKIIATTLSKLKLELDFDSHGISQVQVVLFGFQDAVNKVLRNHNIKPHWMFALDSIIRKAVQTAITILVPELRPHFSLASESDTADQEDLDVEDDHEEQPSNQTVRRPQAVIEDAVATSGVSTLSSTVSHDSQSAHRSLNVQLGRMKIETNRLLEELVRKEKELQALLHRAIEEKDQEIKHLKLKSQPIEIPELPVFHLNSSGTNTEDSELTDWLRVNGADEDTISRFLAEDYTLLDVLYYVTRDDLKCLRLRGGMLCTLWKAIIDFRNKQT
# assay name: Inhibition of human ASK1 using STK-substrate biotin as substrate by TR-FRET assay
value type: EC50

Examples with their reported EC50 follow.
* Cc1ccc(-n2ccn(-c3cccc(-c4nncn4C(C)C)n3)c2=O)c(F)c1 | ≤ 500 nM
* Cc1ccc(NC(=O)Nc2cccc(-c3nncn3C(C)C)n2)c(F)c1 | ≤ 500 nM
* Cc1ccc(N(C)C(=O)Nc2cccc(-c3nncn3C(C)C)n2)c(F)c1 | ≤ 5000 nM
* CC(C)n1cnnc1-c1cccc(NC(=S)Nc2ccccn2)n1 | ≤ 500 nM

Please turn your attention to the following entry.
Exercise: # return recorded EC50 for input C[C@H](CO)n1cnnc1-c1cccc(N2CCN(c3ccc(C(=O)N4CCCCC4)cn3)C2=O)n1
Solution: ≤ 50 nM
